Test system: Streptococcus pneumoniae
Protocol Text: In vitro antibacterial activity against PRSP.
Format: functional
Recorded Metric: MIC (µg/mL)
Numbers only, in µg/mL.

A selection of reference data follows.
{"columns": ["Molecule", "Tgt", "U", "MIC"],
 "data": [
  ["CN[C@H](CC(C)C)C(=O)N[C@H]1C(=O)N[C@@H](CC(N)=O)C(=O)N[C@H]2C(=O)N[C@H]3C(=O)N[C@H](C(=O)N[C@H](C(=O)O)c4cc(O)cc(O)c4-c4cc3ccc4O)[C@H](O)c3ccc(c(Cl)c3)Oc3cc2cc(c3O[C@@H]2O[C@H](CO)[C@@H](O)[C@H](O)[C@H]2O[C@H]2C[C@](C)(N)[C@H](O)[C@H](C)O2)Oc2ccc(cc2Cl)[C@H]1O", "Streptococcus pneumoniae", "µg/mL", 0.35],
  ["C[C@@H](O)[C@H]1C(=O)N2C(C(=O)O)=C(CN3c4cccc5c(CC[N+]67CC[N+](CC(=O)Nc8ccccc8)(CC6)CC7)ccc(c45)S3(=O)=O)[C@H](C)[C@H]12.[Cl-].[Cl-]", "Streptococcus pneumoniae", "µg/mL", 0.12],
  ["C[C@@H](O)[C@H]1C(=O)N2C(C(=O)O)=C(CN3c4cccc5cc(CC[N+]67CC[N+](CC(=O)Nc8ccccc8)(CC6)CC7)cc(c45)S3(=O)=O)[C@H](C)[C@H]12.[Cl-].[Cl-]", "Streptococcus pneumoniae", "µg/mL", 0.17]
]}

Now turn to the next molecule.
**Q:** Need MIC of C[C@@H](O)[C@H]1C(=O)N2C(C(=O)O)=C(SCCNC=N)C[C@H]12 [IMIPENEM ANHYDROUS] , thanks.
**A:** 0.25

----------
Tested on: Staphylococcus aureus
Protocol Text: Effect of 43 mg/mL of Human Serum Albumin, Fraction V (HSA Fr. V) on antimicrobial activity was assessed against MSSA strain MB 2985
Assay type: functional
I'd appreciate it if you could supply MIC values for the items below.
One number for each entry, in µg/mL.

Some compounds with known MIC results, for comparison:
{"columns": ["Compound", "MIC, µg/mL"],
 "data": [
  ["C[C@@H](O)[C@H]1C(=O)N2C(C(=O)O)=C(CN3c4ccc(C[N+]56CC[N+](CC(N)=O)(CC5)CC6)c5cccc(c45)S3(=O)=O)[C@H](C)[C@H]12.[Cl-].[Cl-]", 0.125],
  ["C[C@@H](O)[C@H]1C(=O)N2C(C(=O)O)=C(CN3c4cccc5cc(CCC[N+]67CC[N+](CC(N)=O)(CC6)CC7)cc(c45)S3(=O)=O)[C@H](C)[C@H]12.[Cl-].[Cl-]", 0.031],
  ["C[C@@H](O)[C@H]1C(=O)N2C(C(=O)O)=C(CN3c4cccc5c(C[N+]67CC[N+](CC(N)=O)(CC6)CC7)ccc(c45)S3(=O)=O)[C@H](C)[C@H]12.[Cl-].[Cl-]", 0.031]
]}

For each of the items listed, what is its MIC?
1. C[C@@H](O)[C@H]1C(=O)N2C(C(=O)O)=C(CN3c4cccc5cc(C[N+]67CC[N+](CC(N)=O)(CC6)CC7)cc(c45)S3(=O)=O)[C@H](C)[C@H]12.[Cl-].[Cl-]
2. C[C@@H](O)[C@H]1C(=O)N2C(C(=O)O)=C(CN3c4cccc5ccc(CC[N+]67CC[N+](CC(N)=O)(CC6)CC7)c(c45)S3(=O)=O)[C@H](C)[C@H]12.[Cl-].[Cl-]
3. C[C@@H](O)[C@H]1C(=O)N2C(C(=O)O)=C(CN3c4ccc(CC[N+]56CC[N+](CC(N)=O)(CC5)CC6)c5cccc(c45)S3(=O)=O)[C@H](C)[C@H]12.[Cl-].[Cl-]

**A:**
0.031
0.016
0.062

----------
Test system: Streptococcus pneumoniae
Protocol Text: In vitro antibacterial activity against PRSP.
Assay type: functional
So I've got a bunch of compounds here, and I need their MIC values.
One number for each entry, in µg/mL.

Below are worked cases with known answers.
{"columns": ["Entry Smiles", "Recorded Metric", "U", "Readout Number"],
 "data": [
  ["C[C@@H](O)[C@H]1C(=O)N2C(C(=O)O)=C(CN3c4cccc5c(CC[N+]67CC[N+](CCCO)(CC6)CC7)ccc(c45)S3(=O)=O)[C@H](C)[C@H]12.[Cl-].[Cl-]", "MIC", "µg/mL", 0.5],
  ["CCC[N+]12CC[N+](CCc3cc4c5c(cccc5c3)N(CC3=C(C(=O)O)N5C(=O)[C@H]([C@@H](C)O)[C@H]5[C@H]3C)S4(=O)=O)(CC1)CC2.[Cl-].[Cl-]", "MIC", "µg/mL", 0.24]
]}

Note: attention shifts to another entry.
**Q:** Item: CCC[N+]12CC[N+](CCc3ccc4c5c(cccc35)N(CC3=C(C(=O)O)N5C(=O)[C@H]([C@@H](C)O)[C@H]5[C@H]3C)S4(=O)=O)(CC1)CC2.[Cl-].[Cl-] Test system: Streptococcus pneumoniae Read-out: MIC Value: ?
**A:** 0.25

----------
System: Staphylococcus aureus
Protocol Text: Effect of 43 mg/mL of Human Serum Albumin, Fraction V (HSA Fr. V) on antimicrobial activity was assessed against MSSA strain MB 2985
Assay type: functional
Recorded Metric: MIC

{"columns": ["Compound", "Result"],
 "data": [
  ["C[C@@H](O)[C@H]1C(=O)N2C(C(=O)[O-])=C(CN3c4cccc5cccc(c45)S3(=O)=O)[C@H](C)[C@H]12.[Na+]", "0.25 µg/mL"],
  ["C[C@@H](O)[C@H]1C(=O)N2C(C(=O)O)=C(SCCNC=N)C[C@H]12 [IMIPENEM ANHYDROUS]", "0.016 µg/mL"],
  ["C[C@@H](O)[C@H]1C(=O)N2C(C(=O)O)=C(CN3c4c(CC[N+]56CC[N+](CC(N)=O)(CC5)CC6)ccc5cccc(c45)S3(=O)=O)[C@H](C)[C@H]12.[Cl-].[Cl-]", "64 µg/mL"],
  ["C[C@@H](O)[C@H]1C(=O)N2C(C(=O)O)=C(CN3c4cccc5c(CCC[N+]67CC[N+](CC(N)=O)(CC6)CC7)ccc(c45)S3(=O)=O)[C@H](C)[C@H]12.[Cl-].[Cl-]", "0.031 µg/mL"]
]}

Items follow; give MIC for each.
1. C[C@@H](O)[C@H]1C(=O)N2C(C(=O)O)=C(CN3c4cccc5ccc(C[N+]67CC[N+](CC(N)=O)(CC6)CC7)c(c45)S3(=O)=O)[C@H](C)[C@H]12.[Cl-].[Cl-]
2. C[C@@H](O)[C@H]1C(=O)N2C(C(=O)O)=C(CN3c4cccc5cc(CC[N+]67CC[N+](CC(N)=O)(CC6)CC7)cc(c45)S3(=O)=O)[C@H](C)[C@H]12.[Cl-].[Cl-]

**A:**
1: 0.031 µg/mL; 2: 0.016 µg/mL
